Organism: Rattus norvegicus
Assay: DrugMatrix - Regimen: Daily Repeat
Type: toxicity, organism-based, Sprague-Dawley
Set-up: regimen Daily Repeat, gender Male, age 6-8 weeks
Conditions: in vivo, ip, 0 mg/kg, 120 h, tissue Blood, route intraperitoneal, dose level Control, time 5 day, vehicle 100 % SALINE
ABSOLUTE BASOPHIL overview
reported metric: ABSOLUTE BASOPHIL (cells/µL)

| substance | readout number |
| --- | --- |
| GOLD SODIUM THIOMALATE | 32 |
| CARBOPLATIN | 32 |
| CISPLATIN | 32 |

====

Organism: Rattus norvegicus
Experiment: DrugMatrix - Regimen: Daily Repeat
Assay type: toxicity, organism-based, Sprague-Dawley
Set-up: regimen Daily Repeat, gender Male, age 6-8 weeks
Settings: in vivo, ip, 8 mg/kg, […], tissue Blood, route intraperitoneal, dose level High, time 14 day, vehicle 100 % SALINE
reported metric: ABSOLUTE MONOCYTE (cells/µL)

| substance | unit annotation | readout number |
| --- | --- | --- |
| GOLD SODIUM THIOMALATE | cells/µL | 250 |

====

Organism: Rattus norvegicus
Experiment: DrugMatrix - Regimen: Daily Repeat
Assay type: toxicity, organism-based, Sprague-Dawley
Design: regimen Daily Repeat, gender Male, age 6-8 weeks
Details: in vivo, po, 0 mg/kg, 120 h, tissue Plasma, route oral GAVAGE, dose level Control, time 5 day, vehicle 100 % WATER

| molecule | TOTAL BILIRUBIN (mg/dL) |
| --- | --- |
| Fc1ccc([C@@H]2CCNC[C@H]2COc2ccc3c(c2)OCO3)cc1 [PAROXETINE] | 0.13 |
| NNC(=O)c1ccncc1 [ISONIAZID] | 0.2 |
| Nc1ccc(S(=O)(=O)Nc2ccnn2-c2ccccc2)cc1 [SULFAPHENAZOLE] | 0.22 |
| NC(=O)c1ncn([C@@H]2O[C@H](CO)[C@@H](O)[C@H]2O)n1 [RIBAVIRIN] | 0.2 |
| Cn1cnc([N+](=O)[O-])c1Sc1ncnc2nc[nH]c12 [AZATHIOPRINE] | 0.15 |
| COc1ccc(C(CN(C)C)C2(O)CCCCC2)cc1 (stereo unspecified) [VENLAFAXINE] | 0.23 |

====

Quick reference: LIPASE of the listed items.
Species on record: Rattus norvegicus
Experiment: DrugMatrix - Regimen: Daily Repeat
Format: toxicity, organism-based, Sprague-Dawley
Set-up: regimen Daily Repeat, gender Male, age 6-8 weeks
Conditions: in vivo, iv, 0 mg/kg, 120 h, tissue Plasma, dose level Control, time 5 day, vehicle 100 % SALINE
reported metric: LIPASE

| compound | reported metric | result |
| --- | --- | --- |
| CC1(C)S[C@@H]2[C@H](NC(=O)[C@H](NC(=O)N3CCNC3=O)c3ccccc3)C(=O)N2[C@H]1C(=O)O [AZLOCILLIN] | LIPASE | 9.17 u/L |
| NCC[C@H](O)C(=O)N[C@@H]1C[C@H](N)[C@@H](O[C@H]2O[C@H](CN)[C@@H](O)[C@H](O)[C@H]2O)[C@H](O)[C@H]1O[C@H]1O[C@H](CO)[C@@H](O)[C@H](N)[C@H]1O [AMIKACIN] | LIPASE | 11.33 u/L |
| CC[C@@]1(O)C(=O)OCc2c1cc1n(c2=O)Cc2cc3ccccc3nc2-1 [CAMPTOTHECIN] | LIPASE | 10.83 u/L |
| CN(N=O)C(=O)N[C@@H](C=O)[C@@H](O)[C@H](O)[C@H](O)CO [STREPTOZOCIN] | LIPASE | 8.67 u/L |
